- TARGET: T1, mα5β1 (Mus musculus, UniProt P09055+P11688)
- T1 construct: The full extracellular domains for all α and β integrin subunits; (GGGS)3 linker (C); acidic coiled-coil with cysteine (C); GG-Avitag (C); hexa-histidine tag (C); basic coiled-coil with cysteine (C); made in house; host or cells: Expi293 cells
- T1 sequence (P11688 45-999 limits assumed): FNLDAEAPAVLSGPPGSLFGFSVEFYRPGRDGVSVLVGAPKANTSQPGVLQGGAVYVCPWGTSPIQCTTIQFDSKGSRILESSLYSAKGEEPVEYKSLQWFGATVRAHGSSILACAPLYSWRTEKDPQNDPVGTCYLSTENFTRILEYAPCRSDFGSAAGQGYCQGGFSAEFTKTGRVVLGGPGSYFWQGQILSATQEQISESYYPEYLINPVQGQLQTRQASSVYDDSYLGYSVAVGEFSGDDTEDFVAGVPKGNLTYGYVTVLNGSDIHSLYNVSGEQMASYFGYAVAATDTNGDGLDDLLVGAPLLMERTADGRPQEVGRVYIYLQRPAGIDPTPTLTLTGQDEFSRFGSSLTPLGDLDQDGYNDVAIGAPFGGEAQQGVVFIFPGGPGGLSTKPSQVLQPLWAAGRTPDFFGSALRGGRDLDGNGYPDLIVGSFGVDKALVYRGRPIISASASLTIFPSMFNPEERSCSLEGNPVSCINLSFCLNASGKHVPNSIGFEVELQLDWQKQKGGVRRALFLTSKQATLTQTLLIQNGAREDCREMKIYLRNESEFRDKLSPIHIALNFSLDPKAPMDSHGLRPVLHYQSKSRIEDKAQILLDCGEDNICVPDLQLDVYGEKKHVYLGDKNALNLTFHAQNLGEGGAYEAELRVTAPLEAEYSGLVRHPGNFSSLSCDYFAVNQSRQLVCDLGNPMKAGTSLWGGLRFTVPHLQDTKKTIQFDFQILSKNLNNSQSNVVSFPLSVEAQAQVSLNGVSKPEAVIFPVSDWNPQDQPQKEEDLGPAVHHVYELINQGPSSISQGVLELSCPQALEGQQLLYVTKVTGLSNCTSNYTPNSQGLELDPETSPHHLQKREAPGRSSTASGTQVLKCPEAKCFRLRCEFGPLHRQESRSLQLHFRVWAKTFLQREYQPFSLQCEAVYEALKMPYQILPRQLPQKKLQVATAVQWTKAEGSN
- T1 sequence (P09055 21-728 limits assumed): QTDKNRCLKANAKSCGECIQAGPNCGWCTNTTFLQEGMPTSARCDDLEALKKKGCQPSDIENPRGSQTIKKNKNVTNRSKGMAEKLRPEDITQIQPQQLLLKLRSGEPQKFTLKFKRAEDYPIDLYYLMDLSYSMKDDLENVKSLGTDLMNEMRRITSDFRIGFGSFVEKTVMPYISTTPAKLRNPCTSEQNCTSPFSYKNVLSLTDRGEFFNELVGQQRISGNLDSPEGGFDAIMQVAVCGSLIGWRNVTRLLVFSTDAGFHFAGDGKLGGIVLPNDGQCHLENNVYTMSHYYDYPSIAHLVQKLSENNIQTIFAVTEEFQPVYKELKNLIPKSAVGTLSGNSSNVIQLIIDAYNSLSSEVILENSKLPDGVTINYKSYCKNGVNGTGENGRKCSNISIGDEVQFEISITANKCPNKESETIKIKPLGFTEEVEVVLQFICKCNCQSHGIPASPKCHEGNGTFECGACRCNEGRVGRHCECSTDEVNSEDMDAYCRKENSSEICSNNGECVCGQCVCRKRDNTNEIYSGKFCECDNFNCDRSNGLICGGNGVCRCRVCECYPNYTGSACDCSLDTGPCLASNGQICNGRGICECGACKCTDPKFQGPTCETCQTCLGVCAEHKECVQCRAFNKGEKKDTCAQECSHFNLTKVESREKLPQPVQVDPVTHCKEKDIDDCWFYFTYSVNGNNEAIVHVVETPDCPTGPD
- RUN DESCRIPTION: Mouse AlphaLISA integrin-ligand blocking assay (fibronectin)
- Assay type: biochemical
- ASSAY CONTEXT: Table 12; read-out: IC50 Mouse integrin AlphaLISA assays mα5β1
pIC50: −log10 of the molar value.
PARAMETER: pIC50

[in] Can you look up the measured pIC50 of Ab-30: integrin binder antibody, VH SEQ ID NO: 33, VL SEQ ID NO: 34 (antibody, V domains shown) VH: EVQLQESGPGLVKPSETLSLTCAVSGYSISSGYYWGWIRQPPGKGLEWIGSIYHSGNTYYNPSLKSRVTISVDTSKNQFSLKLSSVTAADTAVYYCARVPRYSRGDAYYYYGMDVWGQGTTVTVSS VL: DIQMTQSPSTLSASVGDRVTITCRASQSISSWLAWYQQKPGKAPKLLIYKASSLESGVPSRFSGSGSGTEFTLTISSLQPDDFATYYCQQVKIYPPYTFGGGTKVEIK for me?
[out] < 6.60
